# system-name: Tubulin (Homo sapiens) (UniProt P68371+Q9H4B7+P0DPH7+P68366+Q13509+Q71U36+P04350+Q3ZCM7+P07437+P68363+Q9BQE3+Q6PEY2+Q13885+Q9BVA1+Q9BUF5)
# assay-remarks: Binding affinity to microtubules, activity expressed as ID50 of compound/ID50 of paclitaxel
# Assay type: protein-complex assay
measured-attribute: ID50 ratio

(I) CC(=O)O[C@H]1C(=O)[C@@]2(C)[C@H]([C@H](OC(=O)c3ccccc3)[C@]3(O)C[C@H](OC(=O)[C@@H](NC(=O)c4ccccc4)[C@H](O)c4ccccc4)C(C)=C1C3(C)C)[C@]1(OC(C)=O)CO[C@@H]1C[C@@H]2O
(II) CC(=O)O[C@@]12CO[C@@H]1C[C@H](O)[C@@]1(C)C(=O)[C@H](O)C3=C(C)[C@@H](OC(=O)[C@H](NC(=O)c4ccccc4)[C@@H](O)c4ccccc4)C[C@@](O)([C@@H](OC(=O)c4ccccc4)[C@H]21)C3(C)C
QUERY: Hi there, can you help? I need to know whether I or II has lower measured ID50 ratio. Selection: enter the item's label.
RESULT: II
(II: 10, I: 110)
